Cited source for all entries: patent US20060069132A1

# Test system: Surinam grass
# assayText: Test C pre-/postemergence herbicide test
# Format: in vivo, Urochloa decumbens
# particulars: 125 g ai/ha; preemergence
measuredQuantity: Plant response rating (0 = no effect, 100 = complete control), Surinam Grass
Lab note: record just the number, no unit beside it.

Known Plant response rating (0 = no effect, 100 = complete control), Surinam Grass results, listed for orientation:
INSERT INTO results (compound, valuemeasured) VALUES
  ('CCNC(=O)c1ccc(F)c(N(C(C)=O)C(=O)c2cc(C(C)(C)C)nn2CC)c1', 95),
  ('CCc1nn(C(C)(C)CC)nc1C(=O)Nc1cccc(C(=O)N(C)C)c1', 85),
  ('CCC1=NN(C(C)(C)C)CC1C(=O)Nc1cc(C(=O)N2CCCC2)ccc1F (racemic)', 95);

# next compound below
Report Plant response rating (0 = no effect, 100 = complete control), Surinam Grass for `CCN(CC)C(=O)c1cccc(NC(=O)c2nn(C(C)(C)C)nc2C)c1`
85

---

# System: barnyardgrass
# assayText: Test C flooded paddy test
# Format: in vivo, Echinochloa crus-galli
# particulars: 62 g ai/ha, scale 0 to 100 (0 no effect, 100 complete control)
Reported Barnyardgrass plant response rating is given for each of the following molecules.
Reply with just the number.

See these solved cases before continuing.
INSERT INTO measurements (itemsmiles, measuredquantity, valuemeasured) VALUES
  ('CCn1nc(C(C)(C)C)cc1C(=O)Nc1cccc(OC(F)(F)C(F)F)c1', 'Barnyardgrass plant response rating', 0),
  ('CCn1nc(C(C)(C)C)cc1C(=O)Nc1cccc(C#N)c1', 'Barnyardgrass plant response rating', 15);

With those in mind, consider the next molecule.
Answer with the recorded Barnyardgrass plant response rating of `CCn1nc(C(C)(C)C)cc1C(=O)Nc1cccc(S(=O)(=O)C(F)(F)F)c1` only.
10

---

# Tested on: Surinam grass
# assayText: Test B pre-/postemergence herbicide test
# Assay type: in vivo, Urochloa decumbens
# particulars: postemergence, 125 g ai/ha; visual rating, scale 0 (no effect) to 100 (complete control)
measuredQuantity: Surinam Grass plant response rating
Lab note: record just the number, no unit beside it.

INSERT INTO results (itemsmiles, valuemeasured) VALUES
  ('C=CCN(C)C(=O)c1ccnc(NC(=O)c2cc(C(C)(C)C)nn2CC)c1', 0),
  ('C=CCOC(=O)c1cccc(NC(=O)c2cc(C(C)(C)C)nn2CC)c1', 60);

Query Surinam Grass plant response rating for `CCNC(=O)c1cc(C)cc(NC(=O)c2cc(C(C)(C)C)nn2CC)n1`
10

Fill in reported Surinam Grass plant response rating for this entry: `CCn1nc(C(C)(C)C)cc1C(=O)Nc1ccnc(C(=O)NCCF)c1`
0

Please indicate Surinam Grass plant response rating recorded for `C#CCNC(=O)c1cccc(NC(=O)c2sc(C(C)(C)C)nc2C)c1`
10

---

# System: barnyardgrass
# assayText: Test A pre-/postemergence herbicide test
# Format: in vivo, Echinochloa crus-galli
# particulars: Preemergence, 2000 g ai/ha; visual rating, 0 to 100 scale (0 no effect, 100 complete control)
Rule: Barnyardgrass plant response rating below 40 gives met, anything at or above gives not met.

Some solved cases for reference:
INSERT INTO assay_data (compound, classification) VALUES
  ('CCn1nc(C(C)(C)C)cc1C(=O)Nc1ccnc(C(=O)NCCF)c1 [Compound 284]', 'not met'),
  ('C#CCNC(=O)c1cccc(NC(=O)c2sc(C(C)(C)C)nc2C)c1 [Compound 203]', 'not met'),
  ('CC(=NO)c1ccnc(NC(=O)c2cc(C(C)(C)C)nn2C)n1 [Compound 164]', 'met'),
  ('CCn1nc(C(C)(C)C)cc1C(=O)Nc1cccc(OC(C)C)c1 [Compound 273]', 'not met'),
  ('CCc1nc(C(C)(C)C)sc1C(=O)Nc1cccc(C(=O)NCC2CC2)n1 [Compound 215]', 'met');

Given the entry CCn1nc(C(C)(C)C)cc1C(=O)Nc1cccc(C(=O)N2CC=CC2)c1 [Compound 286] , would its reported Barnyardgrass plant response rating be below 40?
not met

I'd appreciate it if you could check whether CCn1nc(C(C)(C)C)cc1C(=O)Nc1nccc(OC)n1 [Compound 165] has Barnyardgrass plant response rating smaller than 40.
met

Is Barnyardgrass plant response rating of CCNC(=O)c1cncc(NC(=O)c2cc(C(C)(C)C)nn2CC)n1 [Compound 288] strictly below 40?
not met

Please determine if C#CCNC(=O)c1cccc(NC(=O)c2sc(C(C)(C)C)nc2CC)n1 [Compound 217] is below 40 in terms of Barnyardgrass plant response rating.
met

Consider CCn1nc(C(C)(C)C)cc1C(=O)Nc1cncc(C(=O)NCC(F)(F)F)n1 [Compound 291] . Does its Barnyardgrass plant response rating lie strictly below 40?
met

---

# Tested on: giant foxtail
# assayText: Test A pre-/postemergence herbicide test
# Assay type: in vivo, Setaria faberi
# particulars: Postemergence, 2000 g ai/ha; 0 to 100 scale, 0 no effect, 100 complete control
measuredQuantity: Plant response rating, Foxtail, Giant
The reply should be a number, written without any unit.

Example results:
INSERT INTO results (itemsmiles, valuemeasured) VALUES
  ('CCOC(=O)c1cccc(NC(=O)c2cc(C(C)(C)C)nn2CCF)c1', 40),
  ('CCn1nc(C(C)(C)C)cc1C(=O)Nc1nc(OC)cc(SCF)n1', 0),
  ('CCOc1ccc(F)c(NC(=O)c2cc(C(C)(C)C)nn2CC)c1', 0),
  ('C=CCNC(=O)c1cccc(NC(=O)c2sc(C(C)(C)C)nc2C)c1', 50);

Below: the item to evaluate.
Answer with the recorded Plant response rating, Foxtail, Giant of `CCc1nc(C(C)(C)C)sc1C(=O)Nc1cccc(C(=O)NCC2CC2)n1` only.
40

---

# Test system: ducksalad
# assayText: Test C flooded paddy test
# Format: in vivo, Heteranthera limosa
# particulars: 125 g ai/ha, scale 0 to 100 (0 no effect, 100 complete control)
The reader will find reported Ducksalad plant response rating values listed item by item below.
Format: numeric value only, no unit, no commentary.

Study these solved cases before continuing.
INSERT INTO measurements (itemsmiles, system, valuemeasured) VALUES
  ('CCc1cn(C(C)(C)C)nc1C(=O)Nc1cc(C(=O)N(C)C)ccn1', 'ducksalad', 0),
  ('CCn1nc(C(C)(C)C)cc1C(=O)Nc1cccc(C#N)c1', 'ducksalad', 70),
  ('CCOC(=O)c1ccc(F)c(NC(=O)c2cc(C3(C)CC3)nn2CC)c1', 'ducksalad', 0),
  ('CCn1nc(C2(C)CC2)cc1C(=O)Nc1cccc(C(=O)N2CC=CC2)c1', 'ducksalad', 85);

Please look at the following molecule next.
Specify Ducksalad plant response rating for `CCn1nc(C(C)(C)C)cc1C(=O)Nc1cccc(OC(C)C)c1` and stop.
50

---

# Test system: ducksalad
# assayText: Test C flooded paddy test
# Assay type: in vivo, Heteranthera limosa
# particulars: 500 g ai/ha, visual rating after 12 to 14 days, scale 0 to 100 (0 no effect, 100 complete control)
# Description: […]
Response field label: string, one of True (Plant response rating, Ducksalad strictly below 80) or False.

INSERT INTO results (compound, classification) VALUES
  ('CCN1N=C(C(C)(C)C)CC1C(=O)Nc1cc(C(=O)N2CCCC2)ccc1F (racemic)', 'False'),
  ('CCNC(=O)c1ccc(F)c(N(C(C)=O)C(=O)c2cc(C(C)(C)C)nn2CC)c1', 'False'),
  ('CC(=NO)c1cccc(NC(=O)c2cc(C(C)(C)C)nn2CC(F)(F)F)c1', 'False'),
  ('CCC1=NN(C(C)(C)C)CC1C(=O)Nc1cc(C(=O)N2CCCC2)ccc1F (racemic)', 'True'),
  ('C=CCn1nc(C(C)(C)C)cc1C(=O)Nc1cccc(C(C)=NO)c1', 'True'),
  ('CCn1nc(C(C)(C)C)cc1C(=O)Nc1cccc(C(C)=NO)c1', 'False'),
  ('CCNC(=O)c1cccc(NC(=O)c2nn(C(C)C)nc2C)c1', 'True'),
  ('CCNC(=O)c1cccc(NC(=O)c2nn(C(C)(C)CC)nc2CC)c1', 'False'),
  ('CCn1nc(C(C)(C)C)cc1C(=O)Nc1cc(C(=O)N2CCCC2)ccc1F', 'False');

Determine if CCC1=NN(C(C)(C)C)CC1C(=O)Nc1cc(C(=O)N2CC=CC2)ccc1F (racemic) shows Plant response rating, Ducksalad strictly lower than 80.
False

---

Known Corn plant response rating of a selection of compounds
# System: corn
# assayText: Test B pre-/postemergence herbicide test
# Type: in vivo, Zea mays
# particulars: 125 g ai/ha; visual rating, scale 0 (no effect) to 100 (complete control); postemergence
The answer should be written as a number, with no unit following it.

INSERT INTO results (compound, system, valuemeasured) VALUES
  ('CCc1nn(C(C)(C)CC)nc1C(=O)Nc1cccc(C(=O)N(C)C)c1 [Compound 372]', 'corn', 20),
  ('CCNC(=O)c1cccc(NC(=O)c2nn(C(C)C)nc2C)c1 [Compound 405]', 'corn', 10),
  ('CCNC(=O)c1cccc(NC(=O)c2nn(C(C)(C)CC)nc2CC)c1 [Compound 376]', 'corn', 10);

Consider the compound Cc1nn(C(C)(C)C)cc1C(=O)Nc1cc(C(=O)N(C)C)ccc1F [Compound 344] and give its recorded Corn plant response rating.
10

Indicate its recorded Corn plant response rating; the compound in question is CCc1nn(C(C)C)nc1C(=O)Nc1cccc(C(=O)N2CC=CC2)c1 [Compound 359]
10

Specify measured Corn plant response rating for CCn1nc(C(C)(C)C)cc1C(=O)Nc1cncc(C(=O)N(C)C)n1 [Compound 287] .
0

Write down Corn plant response rating measured for item COC(=O)c1cccc(NC(=O)c2cc(C(C)(C)C)nn2C)n1 [Compound 312]
0
